- Test system: Acinetobacter baumannii (MDR ACB, Libya, V4)
- Measurement description: MIC-assay, Mueller-Hinton broth with G-block alginate, 384-well, OD600
- Measurement setup: Table 9, G-block (OligoCF-5/20) 10%
Metric: MIC (µg/mL)
Write down the numeric answer in µg/mL and omit the unit.

Worked examples follow.
Compound	Metric	Value observed
CN(C)[C@@H]1C(O)=C(C(N)=O)C(=O)[C@@]2(O)C(O)=C3C(=O)c4c(O)cccc4[C@@](C)(O)[C@H]3[C@H](O)[C@@H]12 [Oxytetracycline]	MIC	1
O=C(O)c1cn(C2CC2)c2cc(N3CCNCC3)c(F)cc2c1=O [Ciprofloxacin]	MIC	0.5

Please examine the following record next.
Q) Any idea what MIC was measured for CC[C@H]1OC(=O)[C@H](C)[C@@H](O[C@H]2C[C@@](C)(OC)[C@@H](O)[C@H](C)O2)[C@H](C)[C@@H](O[C@@H]2O[C@H](C)C[C@H](N(C)C)[C@H]2O)[C@](C)(O)C[C@@H](C)/C(=N\OCOCCOC)[C@H](C)[C@@H](O)[C@]1(C)O [Roxithromycin] ?
A) 16

====

- Test system: Acinetobacter baumannii (Egypt, V9)
- Measurement description: MIC-assay, Mueller-Hinton broth with G-block alginate, 384-well, OD600
- Measurement setup: Table 9, G-block (OligoCF-5/20) 2%
Metric: MIC

Below, 8 compounds whose answers are already recorded.
Compound	Value observed
CC[C@H]1OC(=O)[C@H](C)[C@@H](O[C@H]2C[C@@](C)(OC)[C@@H](O)[C@H](C)O2)[C@H](C)[C@@H](O[C@@H]2O[C@H](C)C[C@H](N(C)C)[C@H]2O)[C@](C)(O)C[C@@H](C)CN(C)[C@H](C)[C@@H](O)[C@]1(C)O [Azithromycin]	< 1 µg/mL
CC[C@H]1OC(=O)[C@H](C)[C@@H](O[C@H]2C[C@@](C)(OC)[C@@H](O)[C@H](C)O2)[C@H](C)[C@@H](O[C@@H]2O[C@H](C)C[C@H](N(C)C)[C@H]2O)[C@](C)(O)C[C@@H](C)/C(=N\OCOCCOC)[C@H](C)[C@@H](O)[C@]1(C)O [Roxithromycin]	4 µg/mL
CC[C@H]1OC(=O)[C@H](C)[C@@H](O[C@H]2C[C@@](C)(OC)[C@@H](O)[C@H](C)O2)[C@H](C)[C@@H](O[C@@H]2O[C@H](C)C[C@H](N(C)C)[C@H]2O)[C@](C)(O)C[C@@H](C)[C@@H]2N[C@@H](COCCOC)O[C@H]([C@H]2C)[C@]1(C)O [Dirithromycin]	< 1 µg/mL
CN(C)[C@@H]1C(O)=C(C(N)=O)C(=O)[C@@]2(O)C(O)=C3C(=O)c4c(O)cccc4[C@@](C)(O)[C@H]3[C@H](O)[C@@H]12 [Oxytetracycline]	0.5 µg/mL
C[C@@H](O)[C@H]1C(=O)N2C(C(=O)O)=C(SCCN=CN)C[C@H]12 [Imipenem]	< 2 µg/mL
CC[C@H]1OC(=O)[C@H](C)[C@@H](O[C@H]2C[C@@](C)(OC)[C@@H](O)[C@H](C)O2)[C@H](C)[C@@H](O[C@@H]2O[C@H](C)C[C@H](N(C)C)[C@H]2O)[C@](C)(O)C[C@@H](C)C(=O)[C@H](C)[C@@H](O)[C@]1(C)O [Erythromycin]	2 µg/mL
C[C@H]1[C@H](NC(=O)/C(=N\OC(C)(C)C(=O)O)c2csc(N)n2)C(=O)N1S(=O)(=O)O [Aztreonam]	> 16 µg/mL
O=C(O)c1cn(C2CC2)c2cc(N3CCNCC3)c(F)cc2c1=O [Ciprofloxacin]	> 8 µg/mL

Next compound, please.
Q) State its MIC on Acinetobacter baumannii (Egypt, V9): CC(C)(O/N=C(\C(=O)N[C@@H]1C(=O)N2C(C(=O)[O-])=C(C[n+]3ccccc3)CS[C@H]12)c1csc(N)n1)C(=O)O [Ceftazidime]
A) > 16 µg/mL

====

- System: Acinetobacter baumannii (MDR ACB, Libya, V4)
- Measurement description: MIC-assay, Mueller-Hinton broth with G-block alginate, 384-well, OD600
- Measurement setup: Table 9, G-block (OligoCF-5/20) 0%
Measured MIC, listed per entry.
Answer format: numeric, µg/mL implied, no suffix.

Below, each entry is followed by its recorded MIC result.
Compound	MIC, µg/mL
CN(C)[C@@H]1C(O)=C(C(N)=O)C(=O)[C@@]2(O)C(O)=C3C(=O)c4c(O)cccc4[C@@](C)(O)[C@H]3[C@H](O)[C@@H]12 [Oxytetracycline]	2
CC[C@H]1OC(=O)[C@H](C)[C@@H](O[C@H]2C[C@@](C)(OC)[C@@H](O)[C@H](C)O2)[C@H](C)[C@@H](O[C@@H]2O[C@H](C)C[C@H](N(C)C)[C@H]2O)[C@](C)(O)C[C@@H](C)/C(=N\OCOCCOC)[C@H](C)[C@@H](O)[C@]1(C)O [Roxithromycin]	128
O=C(O)c1cn(C2CC2)c2cc(N3CCNCC3)c(F)cc2c1=O [Ciprofloxacin]	4
C[C@@H](O)[C@H]1C(=O)N2C(C(=O)O)=C(SCCN=CN)C[C@H]12 [Imipenem]	2
CC[C@H]1OC(=O)[C@H](C)[C@@H](O[C@H]2C[C@@](C)(OC)[C@@H](O)[C@H](C)O2)[C@H](C)[C@@H](O[C@@H]2O[C@H](C)C[C@H](N(C)C)[C@H]2O)[C@](C)(O)C[C@@H](C)C(=O)[C@H](C)[C@@H](O)[C@]1(C)O [Erythromycin]	32
C[C@H]1[C@H](NC(=O)/C(=N\OC(C)(C)C(=O)O)c2csc(N)n2)C(=O)N1S(=O)(=O)O [Aztreonam]	4

Q) Give recorded MIC with Acinetobacter baumannii (MDR ACB, Libya, V4) for the following compound: CC[C@H]1OC(=O)[C@H](C)[C@@H](O[C@H]2C[C@@](C)(OC)[C@@H](O)[C@H](C)O2)[C@H](C)[C@@H](O[C@@H]2O[C@H](C)C[C@H](N(C)C)[C@H]2O)[C@](C)(O)C[C@@H](C)CN(C)[C@H](C)[C@@H](O)[C@]1(C)O [Azithromycin]
A) 16

Q) Would you mind doing CC[C@H]1OC(=O)[C@H](C)[C@@H](O[C@H]2C[C@@](C)(OC)[C@@H](O)[C@H](C)O2)[C@H](C)[C@@H](O[C@@H]2O[C@H](C)C[C@H](N(C)C)[C@H]2O)[C@](C)(O)C[C@@H](C)[C@@H]2N[C@@H](COCCOC)O[C@H]([C@H]2C)[C@]1(C)O [Dirithromycin] as well?
A) 64

Q) What about CC(C)(O/N=C(\C(=O)N[C@@H]1C(=O)N2C(C(=O)[O-])=C(C[n+]3ccccc3)CS[C@H]12)c1csc(N)n1)C(=O)O [Ceftazidime] ?
A) 16

====

- Tested on: Acinetobacter baumannii (MDR ACB, Libya, V4)
- Measurement description: MIC-assay, Mueller-Hinton broth with G-block alginate, 384-well, OD600
- Measurement setup: Table 9, G-block (OligoCF-5/20) 6%
Metric: MIC (µg/mL)
Please give a number only; it is taken to be in µg/mL.

Solved entries:
Structure notation	Tgt	Metric	Unit annotation	Value observed
CC[C@H]1OC(=O)[C@H](C)[C@@H](O[C@H]2C[C@@](C)(OC)[C@@H](O)[C@H](C)O2)[C@H](C)[C@@H](O[C@@H]2O[C@H](C)C[C@H](N(C)C)[C@H]2O)[C@](C)(O)C[C@@H](C)/C(=N\OCOCCOC)[C@H](C)[C@@H](O)[C@]1(C)O	Acinetobacter baumannii (MDR ACB, Libya, V4)	MIC	µg/mL	16
CC(C)(O/N=C(\C(=O)N[C@@H]1C(=O)N2C(C(=O)[O-])=C(C[n+]3ccccc3)CS[C@H]12)c1csc(N)n1)C(=O)O	Acinetobacter baumannii (MDR ACB, Libya, V4)	MIC	µg/mL	8
CC[C@H]1OC(=O)[C@H](C)[C@@H](O[C@H]2C[C@@](C)(OC)[C@@H](O)[C@H](C)O2)[C@H](C)[C@@H](O[C@@H]2O[C@H](C)C[C@H](N(C)C)[C@H]2O)[C@](C)(O)C[C@@H](C)[C@@H]2N[C@@H](COCCOC)O[C@H]([C@H]2C)[C@]1(C)O	Acinetobacter baumannii (MDR ACB, Libya, V4)	MIC	µg/mL	2
C[C@@H](O)[C@H]1C(=O)N2C(C(=O)O)=C(SCCN=CN)C[C@H]12	Acinetobacter baumannii (MDR ACB, Libya, V4)	MIC	µg/mL	2
CC[C@H]1OC(=O)[C@H](C)[C@@H](O[C@H]2C[C@@](C)(OC)[C@@H](O)[C@H](C)O2)[C@H](C)[C@@H](O[C@@H]2O[C@H](C)C[C@H](N(C)C)[C@H]2O)[C@](C)(O)C[C@@H](C)C(=O)[C@H](C)[C@@H](O)[C@]1(C)O	Acinetobacter baumannii (MDR ACB, Libya, V4)	MIC	µg/mL	4

Q) For `C[C@H]1[C@H](NC(=O)/C(=N\OC(C)(C)C(=O)O)c2csc(N)n2)C(=O)N1S(=O)(=O)O` , what is its reported MIC?
A) 1

Q) Input `O=C(O)c1cn(C2CC2)c2cc(N3CCNCC3)c(F)cc2c1=O`
A) 1

Q) Follow-up item: `CN(C)[C@@H]1C(O)=C(C(N)=O)C(=O)[C@@]2(O)C(O)=C3C(=O)c4c(O)cccc4[C@@](C)(O)[C@H]3[C@H](O)[C@@H]12`
A) 2
